Test system: NCI-H460
assay-name: Cytotoxicity against human NCI-H460 cells assessed as reduction in cell viability incubated for 48 hrs by MTT assay
Type: functional, cell-based
protocol-conditions: NCI-H460, 48 h
endpoint-label: pIC50
Kindly note that pIC50 refers to -log10 of the concentration in mol/L and answer with the value alone.

CN1C/C(=C\c2ccccc2)C(=O)/C(=C/c2ccccc2)C1 | 4.57
O=C1/C(=C/c2ccccc2)CCC/C1=C\c1ccccc1 | 4.30

Here's the next entry for you.
**Q:** Observed pIC50 on NCI-H460 for `COc1cccc(/C=C2\CNC/C(=C\c3cccc(OC)c3)C2=O)c1` , please.
**A:** 5.10

----------
Listed next: entries and their corresponding IC50.
Test system: NCI-H460
assay-name: Cytotoxicity against human NCI-H460 cells assessed as reduction in cell viability incubated for 48 hrs by MTT assay
Type: functional, cell-based
protocol-conditions: NCI-H460, 48 h
The answer is to be given in µM; state only the numeric part.

Recorded results for 2 compounds are shown here.
COc1ccccc1/C=C1\CN(C)C/C(=C\c2ccccc2OC)C1=O | 8.39
COc1ccccc1/C=C1\CNC/C(=C\c2ccccc2OC)C1=O | 2.88

Continue with the next compound.
**Q:** Lookup: IC50 / NCI-H460 / `O=C1/C(=C/c2ccc(C(F)(F)F)cc2)CNC/C1=C\c1ccc(C(F)(F)F)cc1`
**A:** 7.11
